- Target or system: human CD33 L93A (human, UniProt P20138 18-364)
- Sequence (P20138 18-364 L93A limits assumed): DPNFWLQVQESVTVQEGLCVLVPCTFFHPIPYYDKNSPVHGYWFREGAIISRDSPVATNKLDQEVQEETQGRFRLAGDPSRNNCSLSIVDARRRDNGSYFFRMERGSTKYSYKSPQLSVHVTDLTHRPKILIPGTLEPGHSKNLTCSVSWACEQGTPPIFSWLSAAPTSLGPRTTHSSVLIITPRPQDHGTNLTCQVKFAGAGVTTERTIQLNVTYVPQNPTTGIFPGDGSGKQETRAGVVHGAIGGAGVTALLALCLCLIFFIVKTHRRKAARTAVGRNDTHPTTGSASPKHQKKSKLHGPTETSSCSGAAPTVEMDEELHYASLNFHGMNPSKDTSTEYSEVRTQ
- Assay details: flow cytometry on HEK293-T, alanine scan
Endpoint name: Mean % WT Binding (% WT binding)
Reply with just the number (in % WT binding).

If you can, please state the reported Mean % WT Binding value of Refmab #2 (antibody, V domains shown, The alanine scan used IgG or Fab) VH: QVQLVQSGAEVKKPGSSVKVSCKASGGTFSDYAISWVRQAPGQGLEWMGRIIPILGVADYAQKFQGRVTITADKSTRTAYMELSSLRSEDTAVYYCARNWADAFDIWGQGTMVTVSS VL: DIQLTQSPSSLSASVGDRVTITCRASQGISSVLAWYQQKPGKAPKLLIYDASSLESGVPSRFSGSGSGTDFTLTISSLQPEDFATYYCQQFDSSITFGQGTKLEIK .
103
